Test: Solubility study of crystal form I
Assay type: physicochemical
Conditions: aqueous buffer, thermodynamic from solid; pH 7.4 phosphate buffer (37°C for 24 hours)
result_type: solubility at 24 h (µg/mL)
Response body: numeric value in µg/mL, unit text excluded.

// query Can you look up the measured solubility at 24 h of COc1cnc(-c2c(OC)ncnc2C2CC2)nc1NCC12CCC(c3nc(C(F)(F)F)cn3C)(CC1)CC2 [crystal form I] for me?
// result 310

====

Assay: Solubility study of crystal form I
Assay type: physicochemical
Settings: methanol, organic solvent or mixture, thermodynamic from solid
result_type: solubility

// query Can you look up the measured solubility of COc1cnc(-c2c(OC)ncnc2C2CC2)nc1NCC12CCC(c3nc(C(F)(F)F)cn3C)(CC1)CC2 [crystal form I] for me?
// result > 19.2 mg/mL
